Below, each entry is listed alongside its reported log10(IC50).
System: PC-3
testDetails: Antiproliferative activity against human PC3 cells after 48 hrs by MTT assay
Format: functional, cell-based
conditionInfo: PC-3, 48 h
The base-10 logarithm of IC50, taken with IC50 in µM, is what appears here.

Sample records with log10(IC50):
{"molecule": "CC(=O)c1cccc(-n2cc(CNC(=O)[C@]34CCC(C)(C)C[C@H]3C3=CC[C@@H]5[C@@]6(C)CC[C@H](O[C@@H]7OC[C@H](O[C@@H]8O[C@H](CO)[C@@H](O)[C@H](O)[C@H]8O)[C@H](O)[C@H]7O[C@@H]7O[C@@H](C)[C@H](O)[C@@H](O)[C@H]7O)C(C)(C)[C@@H]6CC[C@@]5(C)[C@]3(C)CC4)nn2)c1", "targetOrSystem": "PC-3", "log10(IC50)": 0.80}
{"molecule": "C[C@@H]1O[C@@H](O[C@H]2[C@H](O[C@H]3CC[C@]4(C)[C@H]5CC=C6[C@@H]7CC(C)(C)CC[C@]7(C(=O)NCc7cn(-c8ccccc8)nn7)CC[C@@]6(C)[C@]5(C)CC[C@H]4C3(C)C)OC[C@H](O[C@@H]3O[C@H](CO)[C@@H](O)[C@H](O)[C@H]3O)[C@@H]2O)[C@H](O)[C@H](O)[C@H]1O", "targetOrSystem": "PC-3", "log10(IC50)": 1.65}
{"molecule": "O=c1[nH]cc(F)c(=O)[nH]1 [FLUOROURACIL]", "targetOrSystem": "PC-3", "log10(IC50)": 0.93}

Record summary for C[C@@H]1O[C@@H](O[C@H]2[C@H](O[C@H]3CC[C@]4(C)[C@H]5CC=C6[C@@H]7CC(C)(C)CC[C@]7(C(=O)NCc7cn(-c8c(Cl)cccc8Cl)nn7)CC[C@@]6(C)[C@]5(C)CC[C@H]4C3(C)C)OC[C@H](O[C@@H]3O[C@H](CO)[C@@H](O)[C@H](O)[C@H]3O)[C@@H]2O)[C@H](O)[C@H](O)[C@H]1O : reported log10(IC50) = 1.62

Record summary for C[C@@H]1O[C@@H](O[C@H]2[C@H](O[C@H]3CC[C@]4(C)[C@H]5CC=C6[C@@H]7CC(C)(C)CC[C@]7(C(=O)NCc7cn(-c8cccc(F)c8)nn7)CC[C@@]6(C)[C@]5(C)CC[C@H]4C3(C)C)OC[C@H](O[C@@H]3O[C@H](CO)[C@@H](O)[C@H](O)[C@H]3O)[C@@H]2O)[C@H](O)[C@H](O)[C@H]1O : reported log10(IC50) = -0.14

Record summary for C[C@@H]1O[C@@H](O[C@H]2[C@H](O[C@H]3CC[C@]4(C)[C@H]5CC=C6[C@@H]7CC(C)(C)CC[C@]7(C(=O)NCc7cn(-c8ccccc8Cl)nn7)CC[C@@]6(C)[C@]5(C)CC[C@H]4C3(C)C)OC[C@H](O[C@@H]3O[C@H](CO)[C@@H](O)[C@H](O)[C@H]3O)[C@@H]2O)[C@H](O)[C@H](O)[C@H]1O : reported log10(IC50) = 0.72

Record summary for Cc1cccc(C)c1-n1cc(CNC(=O)[C@]23CCC(C)(C)C[C@H]2C2=CC[C@@H]4[C@@]5(C)CC[C@H](O[C@@H]6OC[C@H](O[C@@H]7O[C@H](CO)[C@@H](O)[C@H](O)[C@H]7O)[C@H](O)[C@H]6O[C@@H]6O[C@@H](C)[C@H](O)[C@@H](O)[C@H]6O)C(C)(C)[C@@H]5CC[C@@]4(C)[C@]2(C)CC3)nn1 : reported log10(IC50) = 0.95
